Target: T1, rat CD47 (rat, UniProt P97829 19-303)
T1 construct: whole, on cells; also called CD47 on rat RBCs
T1 sequence (looked up): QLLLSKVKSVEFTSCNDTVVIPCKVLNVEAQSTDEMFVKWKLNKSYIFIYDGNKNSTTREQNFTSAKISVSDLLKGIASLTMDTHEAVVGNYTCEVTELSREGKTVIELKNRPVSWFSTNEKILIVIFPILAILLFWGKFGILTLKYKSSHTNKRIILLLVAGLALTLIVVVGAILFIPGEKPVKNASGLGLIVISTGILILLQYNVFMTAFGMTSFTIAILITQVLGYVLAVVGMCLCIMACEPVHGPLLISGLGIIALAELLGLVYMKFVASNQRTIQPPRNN
Test: flow cytometry on RBCs, CHO supernatant 10 ng/ml
Recorded mean fluorescence relative to chimeric antibody values for a group of binders are listed next.
value_type: mean fluorescence relative to chimeric antibody (ratio)

{"binder": "Clone 2 (pVxK7b-037-hum02-LC / pVxK7b-037-hum02-HC) (antibody, human IgG1, kappa, V domains shown) VH: QVQLQESGPGLVKPSQTLSLTCTVSGYTFTNYYVFWVRQARGQRLEWIGDINPVNGDTNFNEKFKNRVTISADKSISTAYLQWSSLKASDTAMYYCARGGYTMDYWGQGTLVTVSS VL: DVVMTQSPLSLPVTLGQPASISCRSSQSLVHSNGNTYLHWYQQKPGQAPRLLIYKVSYRFSGVPSRFSGSGSGTEFTLTISSLQPDDFATYYCSQNTHVPRTFGQGTKVEIKR", "readout_value": 2.6}
{"binder": "Clone 22 (pVxK7b-037-hum22-LC / pVxK7b-037-hum22-HC) (antibody, human IgG1, kappa, V domains shown) VH: QVQLQESGPGLVKPSQTLSLTCTVSGYTFTNYYVFWVRQARGQRLEWIGDINPVNGDTNFNEKFKNRLTISKDTSKNQVVLTMTNMDPVDTATYYCARGGYTMDYWGQGTLVTVSS VL: EIVLTQSPATLSVSPGERATLSCRSSQSLVHSNGNTYLHWYQQKPGQAPRLLIYKVSYRFSGVPSRFSGSGSGTDFTFTISSLEAEDAATYYCSQNTHVPRTFGQGTKVEIKR", "readout_value": 2.8}
{"binder": "Clone 10 (pVxK7b-037-hum10-LC / pVxK7b-037-hum10-HC) (antibody, human IgG1, kappa, V domains shown) VH: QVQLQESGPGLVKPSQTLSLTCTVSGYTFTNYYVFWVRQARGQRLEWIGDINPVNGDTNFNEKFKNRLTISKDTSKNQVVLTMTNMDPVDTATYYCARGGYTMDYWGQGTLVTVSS VL: DIVMTQTPLSLPVTPGEPASISCRSSQSLVHSNGNTYLHWYLQKPGQSPQLLIYKVSYRFSGVPDRFSGSGSGTDFTLKISRVEAEDVGVYYCSQNTHVPRTFGQGTKVEIKR", "readout_value": 2.9}
